Target: Bovine Thrombin
Experiment: Inhibition of thrombin amidase activity (chromogenic substrate), Kass
Settings: equilibrium association constant, mean over a range of concentrations; substrate N-benzoyl-Phe-Val-Arg-p-nitroanilide
Description: The assay is carried out by mixing 50 μL buffer (0.03M Tris, 0.15M NaCl ,pH 7.4) with 25 μL of bovine thrombin or human thrombin solution (0.21 mg/mL of thrombostat bovine thrombin, Parke-Davis, or purified human thrombin, Enzyme Research Laboratories, South Bend, Ind., at about 8 NIH units/mL, in the same buffer) and 25 μL of test compound in a solvent (in 50% aqueous methanol, v:v). […]
quantity-measured: pKd
Would you please state pKd, meaning minus log10 of the concentration in mol/L, as a bare number?

Q: Requested read-out pKd, target or system Bovine Thrombin, entry CN[C@H](Cc1ccccc1)C(=O)N1CCC[C@H]1C(=O)N[C@](C)(C=O)CCCNC(=N)N [Example 1]
Result: 6.04

From here, focus on the item given below.
Q: For Bovine Thrombin, provide pKd of C[C@@](C=O)(CCCNC(=N)N)NC(=O)[C@@H]1CCCN1C(=O)[C@@H]1NCCc2ccccc21 [Example 2] please.
Result: 5.34

###

Recorded pKd values for a group of molecules are listed next.
Target: factor Xa
Assay: Serine protease selectivity assay (chromogenic substrate), Kass, factor Xa
Type: biochemical, human
Details: equilibrium association constant; substrate N-Benzoyl-Ile-Glu-Gly-Arg-p-nitroanilide
Recall that pKd is obtained by taking minus log10 of the concentration measured in molar.

Q: Form field: reported pKd of C[C@@](C=O)(CCCNC(=N)N)NC(=O)[C@@H]1CCCN1C(=O)[C@@H]1NCCc2ccccc21
Result: 3.00

# evaluate next
Q: Entry under review: CN[C@H](Cc1ccccc1)C(=O)N1CCC[C@H]1C(=O)N[C@](C)(C=O)CCCNC(=N)N . Reported pKd?
Result: 2.48

###

Target: Plasmin
Test: Serine protease selectivity assay (chromogenic substrate), Kass, plasmin
Conditions: equilibrium association constant; substrate H-D-Val-Leu-Lys-p-nitroanilide
quantity-measured: pKd
Quick note: pKd values are minus log10 of concentrations in mol/L.

Q: Fill in: pKd of C[C@@](C=O)(CCCNC(=N)N)NC(=O)[C@@H]1CCCN1C(=O)[C@@H]1NCCc2ccccc21 is ___
Result: 2.90

Proceed to the following item.
Q: What pKd value was documented for this molecule, CN[C@H](Cc1ccccc1)C(=O)N1CCC[C@H]1C(=O)N[C@](C)(C=O)CCCNC(=N)N ?
Result: 2.70
